# maps each entry to its EC50
- target_or_system: hGcgR (Homo sapiens, UniProt P47871)
- Sequence (P47871 26-477): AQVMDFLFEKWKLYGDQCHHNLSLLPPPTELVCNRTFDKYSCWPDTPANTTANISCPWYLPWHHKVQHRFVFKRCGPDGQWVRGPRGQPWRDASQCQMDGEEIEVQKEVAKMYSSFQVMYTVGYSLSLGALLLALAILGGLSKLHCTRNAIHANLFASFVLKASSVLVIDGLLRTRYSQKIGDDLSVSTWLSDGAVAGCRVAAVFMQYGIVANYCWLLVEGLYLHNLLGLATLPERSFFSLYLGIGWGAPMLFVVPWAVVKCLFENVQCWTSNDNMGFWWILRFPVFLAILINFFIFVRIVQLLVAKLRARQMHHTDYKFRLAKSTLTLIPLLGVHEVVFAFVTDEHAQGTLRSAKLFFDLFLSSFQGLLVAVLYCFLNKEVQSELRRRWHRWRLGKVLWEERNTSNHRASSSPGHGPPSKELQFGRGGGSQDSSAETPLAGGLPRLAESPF
- experiment_notes: Functional cAMP activation in the presence of 0.1% casein (no HSA);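 note: intracellular cAMP rise after 30 min at 37 °C, read by HTRF against a cAMP standard curve, scaled from buffer only (0%) to maximal control ligand response (100%)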
- Type: cell-based
- test_parameters: in the presence of 0.1% casein (no HSA); geometric mean; read-out: Relative cAMP EC50, hGcgR
Starred links: 1 amine or outer side, 2 acyl side, 3 side chain; linkers in the order of their positions; H or OH if unused. Non-standard residues stand in square brackets, D forms with d. Groups on a side chain read outwards from the residue. No end group written: not given here. *: point of attachment. C20 diacid = O=C(O)CCCCCCCCCCCCCCCCCCC(=O)*; C18 diacid = O=C(O)CCCCCCCCCCCCCCCCC(=O)*; γGlu = O=C(O)[C@H](CCC(=O)[*:2])N[*:1]; αMe4Pal = C[C@](N)(Cc1ccncc1)C(=O)O; αMeY = C[C@](N)(Cc1ccc(O)cc1)C(=O)O; αMeF = C[C@](N)(Cc1ccccc1)C(=O)O; 4Pal = N[C@@H](Cc1ccncc1)C(=O)O; αMeL = CC(C)C[C@](C)(N)C(=O)O; αMeS = C[C@](N)(CO)C(=O)O; Orn = NCCC[C@H](N)C(=O)O; AEEA = NCCOCCOCC(=O)O; Aib = CC(C)(N)C(=O)O
property_name: EC50 (nM)

{"substance": "H-Y[Aib]QGT[αMeF]TSD[4Pal][αMeS]I[αMeL]LD[Orn]K([AEEA-γGlu-C18 diacid])AQ[αMe4Pal]EFI[dE][αMeY]LIEGGPSSGAPPPSGSE-NH2 [Example 1166]", "property_name": "EC50", "scale_unit": "nM", "readout_value": 2.94}
{"substance": "Y[Aib]QGTFTSD[4Pal]SQ[αMeL]LDKK([dE-dE-γGlu-C18 diacid])AQ[αMe4Pal]AFIEYLIE[Aib]GPSSGAPPPSGSE-NH2 [Example 925]", "property_name": "EC50", "scale_unit": "nM", "readout_value": 8.19}
{"substance": "H-Y[Aib]QGTFTSDFSK[αMeL]LDKK([AEEA-AEEA-γGlu-C20 diacid])AQ[Aib]AFIEYLLEGGPSSGAPPPGEG-NH2 [Example 17]", "property_name": "EC50", "scale_unit": "nM", "readout_value": 8.33}

Reference for the values: patent US20240270821A1
